Test system: Setaria faberi (SETFA)
Experiment: Pre-emergence herbicidal activity (B1)
Format: in vivo
Settings: Test 1a, 1000 g/ha, evaluated after 13 days, 5=total damage to plant, 0=no damage to plant
property_label: SETFA damage score
Number only, please.

In: Please give the measured SETFA damage score for this compound: Fc1cncc(-c2ccc(NCCc3ccccc3)c(C(F)(F)F)n2)c1 [Compound A49]
Out: 5

In: Please give the measured SETFA damage score for this compound: Fc1cncc(-c2ccc(N3CCOCC3)c(C(F)(F)F)n2)c1 [Compound A39]
Out: 3

In: Please give the measured SETFA damage score for this compound: Fc1cncc(-c2ccc(NCc3nccs3)c(C(F)(F)F)n2)c1 [Compound A56]
Out: 5

In: Please give the measured SETFA damage score for this compound: Fc1cncc(-c2ccc(NCC3CCC3)c(C(F)(F)F)n2)c1 [Compound A51]
Out: 5

In: Please give the measured SETFA damage score for this compound: Fc1cncc(-c2ccc(NCc3cc4ccccn4n3)c(C(F)(F)F)n2)c1 [Compound A55]
Out: 5

----------
Test system: Amaranthus retroflexus (AMARE)
Assay: Post-emergence herbicidal activity (B2)
Type: in vivo
Details: Test B2b, 1000 g/ha, evaluated after 13 days, 5=total damage to plant, 0=no damage to plant
property_label: AMARE damage score
Number only, please.

In: Request body: readout AMARE damage score, system Amaranthus retroflexus (AMARE), query "Nc1ccc(-c2cncc(F)c2)nc1C(F)(F)F" . Return the value.
Out: 2

In: Request body: readout AMARE damage score, system Amaranthus retroflexus (AMARE), query "CNc1ccc(-c2cncc(C)c2)nc1C(F)(F)F" . Return the value.
Out: 0

In: Request body: readout AMARE damage score, system Amaranthus retroflexus (AMARE), query "CNc1ccc(-c2cncnc2)nc1C(F)(F)F" . Return the value.
Out: 2

In: Request body: readout AMARE damage score, system Amaranthus retroflexus (AMARE), query "CNc1ccc(-c2cncc(OC)c2)nc1C(F)(F)F" . Return the value.
Out: 1

In: Request body: readout AMARE damage score, system Amaranthus retroflexus (AMARE), query "Cc1nc(-c2cncnc2)ccc1N" . Return the value.
Out: 2

In: Request body: readout AMARE damage score, system Amaranthus retroflexus (AMARE), query "Nc1ccc(-c2cncnc2)nc1C(F)(F)F" . Return the value.
Out: 2

In: Request body: readout AMARE damage score, system Amaranthus retroflexus (AMARE), query "Fc1cncc(-c2ccc(NCc3ccc(F)cc3F)c(C(F)(F)F)n2)c1" . Return the value.
Out: 1

In: Request body: readout AMARE damage score, system Amaranthus retroflexus (AMARE), query CC(Nc1ccc(-c2cncc(F)c2)nc1C(F)(F)F)c1cccc(C(F)(F)F)c1 (centres unmarked) . Return the value.
Out: 0

In: Request body: readout AMARE damage score, system Amaranthus retroflexus (AMARE), query "Cc1nc(-c2cccnc2)ccc1N" . Return the value.
Out: 1

In: Request body: readout AMARE damage score, system Amaranthus retroflexus (AMARE), query "CNc1ccc(-c2cncc(F)c2)nc1C(F)(F)F" . Return the value.
Out: 1

In: Request body: readout AMARE damage score, system Amaranthus retroflexus (AMARE), query "N#Cc1nc(-c2cncc(F)c2)ccc1N" . Return the value.
Out: 1

----------
System: Echinochloa crus-galli (ECHCG)
Experiment: Pre-emergence herbicidal activity (B1)
Assay type: in vivo
Conditions: Test 1a, 1000 g/ha, evaluated after 13 days, 5=total damage to plant, 0=no damage to plant
property_label: ECHCG damage score
Number only, please.

In: Please give the measured ECHCG damage score for this compound: "Fc1cncc(-c2ccc(N3CCOCC3)c(C(F)(F)F)n2)c1"
Out: 3

In: Please give the measured ECHCG damage score for this compound: "CN1CCN(c2ccc(-c3cncc(F)c3)nc2C(F)(F)F)CC1"
Out: 4

In: Please give the measured ECHCG damage score for this compound: "COC(=O)c1nc(-c2cncc(F)c2)ccc1N"
Out: 2

In: Please give the measured ECHCG damage score for this compound: "CCCCCNc1ccc(-c2cncc(F)c2)nc1C(F)(F)F"
Out: 3

In: Please give the measured ECHCG damage score for this compound: "Fc1cncc(-c2ccc(NCC3CCCCC3)c(C(F)(F)F)n2)c1"
Out: 3

----------
Tested on: Echinochloa crus-galli (ECHCG)
Assay: Pre-emergence herbicidal activity (B1)
Type: in vivo
Settings: Test 1a, 1000 g/ha, evaluated after 13 days, 5=total damage to plant, 0=no damage to plant
property_label: ECHCG damage score
Number only, please.

In: Request body: readout ECHCG damage score, system Echinochloa crus-galli (ECHCG), query "N#Cc1nc(-c2cncnc2)ccc1N" . Return the value.
Out: 3

In: Request body: readout ECHCG damage score, system Echinochloa crus-galli (ECHCG), query "Cn1ccc(CNc2ccc(-c3cncc(F)c3)nc2C(F)(F)F)n1" . Return the value.
Out: 4

In: Request body: readout ECHCG damage score, system Echinochloa crus-galli (ECHCG), query "CNc1ccc(-c2cncc(C#N)c2)nc1C(F)(F)F" . Return the value.
Out: 1

In: Request body: readout ECHCG damage score, system Echinochloa crus-galli (ECHCG), query "Nc1ccc(-c2cncc(F)c2)nc1-c1ccccc1" . Return the value.
Out: 1

In: Request body: readout ECHCG damage score, system Echinochloa crus-galli (ECHCG), query "Fc1cncc(-c2ccc(NC3CCCCC3)c(C(F)(F)F)n2)c1" . Return the value.
Out: 3

In: Request body: readout ECHCG damage score, system Echinochloa crus-galli (ECHCG), query "COc1nc(-c2cncc(F)c2)ccc1N" . Return the value.
Out: 0

In: Request body: readout ECHCG damage score, system Echinochloa crus-galli (ECHCG), query Fc1cncc(-c2ccc(N3CCCC3C(F)(F)F)c(C(F)(F)F)n2)c1 (stereo not shown) . Return the value.
Out: 1

In: Request body: readout ECHCG damage score, system Echinochloa crus-galli (ECHCG), query "Fc1cncc(-c2ccc(N3CCC3)c(C(F)(F)F)n2)c1" . Return the value.
Out: 2

In: Request body: readout ECHCG damage score, system Echinochloa crus-galli (ECHCG), query "Nc1ccc(-c2cncc(Cl)c2)nc1C(F)(F)F" . Return the value.
Out: 3

In: Request body: readout ECHCG damage score, system Echinochloa crus-galli (ECHCG), query "Fc1cncc(-c2ccc(NCc3cnco3)c(C(F)(F)F)n2)c1" . Return the value.
Out: 5

In: Request body: readout ECHCG damage score, system Echinochloa crus-galli (ECHCG), query "Fc1cncc(-c2ccc(NC3CC3)c(C(F)(F)F)n2)c1" . Return the value.
Out: 2

In: Request body: readout ECHCG damage score, system Echinochloa crus-galli (ECHCG), query "N#Cc1cncc(-c2ccc(N)c(C(F)(F)F)n2)c1" . Return the value.
Out: 2

In: Request body: readout ECHCG damage score, system Echinochloa crus-galli (ECHCG), query "Fc1cncc(-c2ccc(NCc3nccs3)c(C(F)(F)F)n2)c1" . Return the value.
Out: 4

In: Request body: readout ECHCG damage score, system Echinochloa crus-galli (ECHCG), query "Fc1cncc(-c2ccc(NCCc3ccccc3)c(C(F)(F)F)n2)c1" . Return the value.
Out: 3

In: Request body: readout ECHCG damage score, system Echinochloa crus-galli (ECHCG), query "CN(C)c1ccc(-c2cncc(F)c2)nc1C(F)(F)F" . Return the value.
Out: 5

In: Request body: readout ECHCG damage score, system Echinochloa crus-galli (ECHCG), query "CCCNc1ccc(-c2cncc(F)c2)nc1C(F)(F)F" . Return the value.
Out: 3

In: Request body: readout ECHCG damage score, system Echinochloa crus-galli (ECHCG), query "Fc1cncc(-c2ccc(NCc3cscn3)c(C(F)(F)F)n2)c1" . Return the value.
Out: 5

In: Request body: readout ECHCG damage score, system Echinochloa crus-galli (ECHCG), query "Fc1cncc(-c2ccc(N3CC(F)(F)C(F)(F)C3)c(C(F)(F)F)n2)c1" . Return the value.
Out: 3

In: Request body: readout ECHCG damage score, system Echinochloa crus-galli (ECHCG), query "Fc1cncc(-c2ccc(N3CCCC3)c(C(F)(F)F)n2)c1" . Return the value.
Out: 4

In: Request body: readout ECHCG damage score, system Echinochloa crus-galli (ECHCG), query "Cc1nc(-c2cncc(OC(F)F)c2)ccc1N" . Return the value.
Out: 1

In: Request body: readout ECHCG damage score, system Echinochloa crus-galli (ECHCG), query "CC(C)CCNc1ccc(-c2cncc(F)c2)nc1C(F)(F)F" . Return the value.
Out: 4

In: Request body: readout ECHCG damage score, system Echinochloa crus-galli (ECHCG), query "Fc1cncc(-c2ccc(NCc3cc4ccccn4n3)c(C(F)(F)F)n2)c1" . Return the value.
Out: 5

In: Request body: readout ECHCG damage score, system Echinochloa crus-galli (ECHCG), query "Fc1cncc(-c2ccc(NCC3CCC3)c(C(F)(F)F)n2)c1" . Return the value.
Out: 5

In: Request body: readout ECHCG damage score, system Echinochloa crus-galli (ECHCG), query "CCCCCCNc1ccc(-c2cncc(F)c2)nc1C(F)(F)F" . Return the value.
Out: 4

In: Request body: readout ECHCG damage score, system Echinochloa crus-galli (ECHCG), query "CCCN(CCC)c1ccc(-c2cncc(F)c2)nc1C(F)(F)F" . Return the value.
Out: 4

Data origin, for the record: patent US10986838B2
